Values from ChEMBL document CHEMBL4477223

Listing of recorded Papp at 18 h by entry.
Assay: Permeability of the compound at pH 7.4 after 18 hrs by PAMPA-BBB assay

Worked examples, 2 compounds total:
CC(=O)[C@H]1CC[C@H]2[C@@H]3CCC4=CC(=O)CC[C@]4(C)[C@H]3CC[C@]12C ... 9.3 to 16.8 ×10⁻⁶ cm/s
CN/C(=N/CCSCc1nc[nH]c1C)NC#N ... < 0.7 ×10⁻⁶ cm/s

Input "CNCCCN1c2ccccc2CCc2ccccc21" . Output Papp at 18 h: 12 to 17.8 ×10⁻⁶ cm/s

Input "CN(C)CCCN1c2ccccc2Sc2ccccc21" . Output Papp at 18 h: 8.8 to 13.8 ×10⁻⁶ cm/s

Input "CN1C(C(=O)Nc2ccccn2)=C(O)c2ccccc2S1(=O)=O" . Output Papp at 18 h: 1.93 to 2.5 ×10⁻⁶ cm/s

Input "Clc1cccc(Cl)c1N=C1NCCN1" . Output Papp at 18 h: 5.3 to 6.5 ×10⁻⁶ cm/s

Input CCn1cc(C(=O)O)c(=O)c2cc(F)c(N3CCNC(C)C3)c(F)c21 (stereo not drawn) . Output Papp at 18 h: < 0.78 ×10⁻⁶ cm/s

Input "CCn1cc(C(=O)O)c(=O)c2cc(F)c(N3CCNCC3)cc21" . Output Papp at 18 h: 0.1 to 0.9 ×10⁻⁶ cm/s
